Values from PubChem BioAssay AID1159580

Protocol: chemical genetic growth profiling, strain panel (AID 1159580);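 note: tested at 20 µM; growth read once vehicle control cultures reached saturation at 30 °C; 1 = growth at the plate median or of vehicle wells; lower values mean less growth of the strain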
Assay Conditions: S. cerevisiae deletion strains, growth OD, locus YBR229C, strain ROT2, active compounds read low
The campaign covered roughly 5,500 compounds. About 2,000 (36%) were called active. Another 18% or so got no clear call; they are omitted. This is one part of the list.
Reported Endpoint: normalized growth
Lab note: record just the number, no unit beside it.

Compound: COc1cc(C2N=C(c3ccc(Cl)cc3)SC(c3ccc(Cl)cc3)=N2)cc(OC)c1OC
normalized growth: 1.01
//
Compound: O=C(NCCSCc1ccco1)c1ccc(Cl)cc1
normalized growth: 0.991
//
Compound: N[C@@H](Cc1ccc(O)c(O)c1)C(=O)O
normalized growth: 1.01

Q: Please list normalized growth recorded for the compound "CC(=O)N/C(=C/c1ccc2c(c1)OCO2)C(=O)O"
Ans: 1

Q: State, in one line, measured normalized growth of O=C(O)CCCCC1CCSS1 (centres undefined)
Ans: 0.953

Q: Let me know recorded normalized growth for "Nc1ccc(C(=O)NCC(=O)O)cc1" , thanks.
Ans: 1

Q: Find the measured normalized growth of "O=[N+]([O-])c1ccc2nsnc2c1" and report it.
Ans: 0.643

Q: Query normalized growth for CC(=O)OC1CC(OC(C)=O)C2(C)C(CC(OC(C)=O)C3(C)C2CCC2(C)C(c4ccoc4)CC4OC423)C1(C)C (centres undefined)
Ans: 1

Q: Supply measured normalized growth of "O=C(NCCSCc1ccco1)Nc1cc(Cl)cc(Cl)c1" in your reply.
Ans: 0.976

Q: Tell me its normalized growth given "c1ccc2c(c1)CCc1c-2[nH]c2ccccc12" as the entry.
Ans: 0.682

Q: Please list normalized growth recorded for the compound CC(=O)c1c(O)c(C)c(O)c2c1OC1=CC(=O)C(C(C)=O)C(=O)C12C (centres undefined)
Ans: 1.01

Q: Give a short answer stating reported normalized growth for "CC(=O)Nc1cc([N+](=O)[O-])ccc1-n1cc(C)c(C(F)(F)F)n1" .
Ans: 0.985

Q: Input "CN/C(=C\[N+](=O)[O-])NCCSCc1ccc(CN(C)C)o1" , output reported normalized growth.
Ans: 1.02

Q: Identify the reported normalized growth for the following entry. "Cc1ccsc1/C=C/C1=NCCCN1C"
Ans: 1.01

Q: Supply reported normalized growth belonging to this compound: "O=S(=O)(N/N=C\c1ccc(Cl)cc1)c1ccc(-c2ccccn2)s1"
Ans: 0.994

Q: Read the entry "COc1cc(OC)c2c(=O)c(-c3ccccc3)c(C)oc2c1OC" and write its reported normalized growth.
Ans: 1

Q: For "Oc1ccc(Cl)c2cccnc12" , write its normalized growth.
Ans: 0.0466

Q: Return the recorded normalized growth value; entry: O=C1CCCC2C3CC(CN12)[C@@H]1CCCCN1C3 (some centres undefined)
Ans: 0.985

Q: Entry "COc1ccc(-c2ccnc(SCC(=O)NCCSCc3ccco3)n2)cc1" needs its normalized growth filled in; supply it.
Ans: 0.998
